Values were extracted from patent US20180273534A1.

Tested on: Meloidogyne incognita
Assay: Meloidogyne incognita test (sand, salad seedlings, gall formation)
Assay type: in vivo
Conditions: application rate 20 ppm, after 14 days, 100% = no galls, 0% = galls equal to untreated control
nematicidal activity on the basis of the percentage of gall formation listing for selected molecules.
property: nematicidal activity on the basis of the percentage of gall formation (%)

molecular_string | observed_measurement
Cc1ccccc1S(=O)(=O)NC(=O)c1cc2c(Cl)cc(C(F)(F)F)cn2n1 | 90
CC(C)Sc1cccc(Cl)c1S(=O)(=O)NC(=O)c1cc2cc(C(F)(F)F)cc(Cl)n2n1 | 100
CCc1ccc(C)c(S(=O)(=O)NC(=O)c2cc3cc(Cl)cc(Cl)n3n2)c1 | 100
CCCOc1ccc(Cl)c(S(=O)(=O)NC(=O)c2cc3cc(Cl)cc(Cl)n3n2)c1 | 100
